Where do the numbers come from? From ChEMBL document CHEMBL5113491.

System: PC-3
Assay: Antiproliferative activity against human PC-3 cells assessed as inhibition of cell growth measured after 48 hrs by MTT assay
Format: functional, cell-based
Settings: PC-3, 48 h
PARAMETER: IC50 (nM)
Return type: number; implicit unit nM.

Q) For the compound "C/C=C/C(=O)N(Cc1ccc(OC)c(O)c1)c1cc(OC)c(OC)c(OC)c1" , what IC50 is on record?
A) 55

----------
Tested on: A549
Experiment: Antiproliferative activity against human A549 cells assessed as inhibition of cell growth measured after 48 hrs by MTT assay
Type: functional, cell-based
Settings: A549, 48 h
PARAMETER: IC50 (nM)
Return type: number; implicit unit nM.

Q) For the compound "C/C=C/C(=O)N(Cc1ccc(OC)c(O)c1)c1cc(OC)c(OC)c(OC)c1" , what IC50 is on record?
A) 59

----------
Assay: Cytotoxicity against human HUVEC cells assessed as reduction in cell viability measured after 48 hrs by MTT assay
Format: toxicity, cell-based
PARAMETER: IC50 at 48 h
Record the result as number plus unit.

Q) For the compound "C/C=C/C(=O)N(Cc1ccc(OC)c(O)c1)c1cc(OC)c(OC)c(OC)c1" , what IC50 at 48 h is on record?
A) 48.5 µM

----------
System: HGC-27
Test: Antiproliferative activity against human HGC-27 cells assessed as inhibition of cell growth measured after 48 hrs by MTT assay
Type: functional, cell-based
Details: HGC-27, 48 h
PARAMETER: pIC50
pIC50 is defined as minus the log10 of a concentration measured in mol/L.

Q) For the molecule "C/C=C/C(=O)N(Cc1ccc(OC)c(O)c1)c1cc(OC)c(OC)c(OC)c1" , what pIC50 is on record?
A) 7.48

----------
Assay: Cytotoxicity against human GES1 cells assessed as reduction in cell viability measured after 48 hrs by MTT assay
Format: toxicity, cell-based
PARAMETER: IC50 at 48 h (nM)
Return type: number; implicit unit nM.

Q) For the compound "C/C=C/C(=O)N(Cc1ccc(OC)c(O)c1)c1cc(OC)c(OC)c(OC)c1" , what IC50 at 48 h is on record?
A) 768
